// provenance: ChEMBL document CHEMBL1155442

Target Under Test: Lysosomal acid glucosylceramidase (Homo sapiens)
Assay Text: Binding affinity to recombinant beta-glucocerebrosidase assessed as enzymatic activity at 50 uM after 20 mins by thermal stabilization assay relative to control
Parameter Measured: fold change (FC)
Form: value (number only, do not type unit).

Consider the following illustrative entries.
• CCCCCCCCCn1cc(CN[C@H]2[C@H](O)[C@@H](O)[C@H](O)[C@@H](O)[C@@H]2O)nn1 = 2.06
• CCCCCCCCCCn1cc(CN[C@H]2[C@H](O)[C@@H](O)[C@H](O)[C@@H](O)[C@@H]2O)nn1 = 2.7
• CCCCCCCCCn1cc(CCN[C@H]2[C@H](O)[C@@H](O)[C@H](O)[C@@H](O)[C@@H]2O)nn1 = 2.22
• CCCCCCCCCCCCn1cc(CN[C@H]2[C@H](O)[C@@H](O)[C@H](O)[C@@H](O)[C@@H]2O)nn1 = 3.11
• CCCCCCCCCCCn1cc(CCN[C@H]2[C@H](O)[C@@H](O)[C@H](O)[C@@H](O)[C@@H]2O)nn1 = 2.43

Provide value of fold change (FC) for this record tested with Lysosomal acid glucosylceramidase (Homo sapiens): CCCCCCCCCCCCCCn1cc(CN[C@H]2[C@H](O)[C@@H](O)[C@H](O)[C@@H](O)[C@@H]2O)nn1
2.82

Provide value of fold change (FC) for this record tested with Lysosomal acid glucosylceramidase (Homo sapiens): CCCCCCCCCCN[C@H]1[C@H](O)[C@@H](O)[C@H](O)[C@@H](O)[C@@H]1O
1.29

----------
Target Under Test: Lysosomal acid glucosylceramidase (Homo sapiens, UniProt P04062)
Recorded log10 of Ki, one value per entry.
Recall that a logarithmic scale is used here: each number is log10 of Ki in µM.

- CCCCCCCCCCCn1cc(CCN[C@H]2[C@H](O)[C@@H](O)[C@H](O)[C@@H](O)[C@@H]2O)nn1: 1.31

Provide value of log10 of Ki for this record tested with Lysosomal acid glucosylceramidase (Homo sapiens, UniProt P04062): CCCCCCCCCCn1cc(CN[C@H]2[C@H](O)[C@@H](O)[C@H](O)[C@@H](O)[C@@H]2O)nn1
-1.05

Provide value of log10 of Ki for this record tested with Lysosomal acid glucosylceramidase (Homo sapiens, UniProt P04062): CCCCCCCCCCCCCCn1cc(CN[C@H]2[C@H](O)[C@@H](O)[C@H](O)[C@@H](O)[C@@H]2O)nn1
-1.10

Provide value of log10 of Ki for this record tested with Lysosomal acid glucosylceramidase (Homo sapiens, UniProt P04062): CCCCCCCCCCn1cc(CCCN[C@H]2[C@H](O)[C@@H](O)[C@H](O)[C@@H](O)[C@@H]2O)nn1
0.88

Provide value of log10 of Ki for this record tested with Lysosomal acid glucosylceramidase (Homo sapiens, UniProt P04062): CCCCCCCCn1cc(CN[C@H]2[C@H](O)[C@@H](O)[C@H](O)[C@@H](O)[C@@H]2O)nn1
0.26

Provide value of log10 of Ki for this record tested with Lysosomal acid glucosylceramidase (Homo sapiens, UniProt P04062): CCCCCCCCn1cc(CCCN[C@H]2[C@H](O)[C@@H](O)[C@H](O)[C@@H](O)[C@@H]2O)nn1
1.30

Provide value of log10 of Ki for this record tested with Lysosomal acid glucosylceramidase (Homo sapiens, UniProt P04062): CCCCCCCCCCCCn1cc(CN[C@H]2[C@H](O)[C@@H](O)[C@H](O)[C@@H](O)[C@@H]2O)nn1
-1.22

Provide value of log10 of Ki for this record tested with Lysosomal acid glucosylceramidase (Homo sapiens, UniProt P04062): CCCCCCCCCCN[C@H]1[C@H](O)[C@@H](O)[C@H](O)[C@@H](O)[C@@H]1O
-0.52

Provide value of log10 of Ki for this record tested with Lysosomal acid glucosylceramidase (Homo sapiens, UniProt P04062): CCCOCCCCCCn1cc(CN[C@H]2[C@H](O)[C@@H](O)[C@H](O)[C@@H](O)[C@@H]2O)nn1
0.38

----------
Target Under Test: Lysosomal acid glucosylceramidase (Homo sapiens) (UniProt P04062)
Sequence (P04062 whole entry): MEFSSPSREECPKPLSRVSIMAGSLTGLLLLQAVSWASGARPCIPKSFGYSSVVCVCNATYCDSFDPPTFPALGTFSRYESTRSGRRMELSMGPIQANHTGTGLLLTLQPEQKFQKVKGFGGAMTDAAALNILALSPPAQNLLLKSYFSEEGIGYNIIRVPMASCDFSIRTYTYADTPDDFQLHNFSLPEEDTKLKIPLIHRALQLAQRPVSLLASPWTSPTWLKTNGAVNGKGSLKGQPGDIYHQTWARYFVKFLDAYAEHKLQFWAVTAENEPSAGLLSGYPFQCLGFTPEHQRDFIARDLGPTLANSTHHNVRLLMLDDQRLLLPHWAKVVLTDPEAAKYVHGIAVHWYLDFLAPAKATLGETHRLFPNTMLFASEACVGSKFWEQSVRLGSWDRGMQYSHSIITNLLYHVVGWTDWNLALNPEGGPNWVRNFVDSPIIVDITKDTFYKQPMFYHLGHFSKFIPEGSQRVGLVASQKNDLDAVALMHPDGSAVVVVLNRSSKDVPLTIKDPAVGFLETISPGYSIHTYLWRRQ
Assay Text: Binding affinity to recombinant beta-glucocerebrosidase assessed as enzymatic activity at 150 uM after 20 mins by thermal stabilization assay relative to control
Recorded fold change (FC), one value per entry.
Form: value (number only, do not type unit).

Consider the following illustrative entries.
- CCCCCCCCCn1cc(CCN[C@H]2[C@H](O)[C@@H](O)[C@H](O)[C@@H](O)[C@@H]2O)nn1: 2.37
- CCCCCCCCCCN[C@H]1[C@H](O)[C@@H](O)[C@H](O)[C@@H](O)[C@@H]1O: 1.99
- CCCCCCCCCCCCCCn1cc(CN[C@H]2[C@H](O)[C@@H](O)[C@H](O)[C@@H](O)[C@@H]2O)nn1: 2.67
- CCCCCCCCCn1cc(CN[C@H]2[C@H](O)[C@@H](O)[C@H](O)[C@@H](O)[C@@H]2O)nn1: 2.34
- CCCCCCCCCCCn1cc(CCN[C@H]2[C@H](O)[C@@H](O)[C@H](O)[C@@H](O)[C@@H]2O)nn1: 2.5
- CCCCCCCCCCn1cc(CN[C@H]2[C@H](O)[C@@H](O)[C@H](O)[C@@H](O)[C@@H]2O)nn1: 3.24

Switching to the query record.
Query: fold change (FC); subject: CCCCCCCCCCCCn1cc(CN[C@H]2[C@H](O)[C@@H](O)[C@H](O)[C@@H](O)[C@@H]2O)nn1
3.21

----------
Recorded fold change (FC), one value per entry.
Target Under Test: Lysosomal acid glucosylceramidase (Homo sapiens) (UniProt P04062)
Assay Text: Binding affinity to recombinant beta-glucocerebrosidase assessed as enzymatic activity at 50 uM after 60 mins by thermal stabilization assay relative to control

Consider the following illustrative entries.
• CCCCCCCCCn1cc(CN[C@H]2[C@H](O)[C@@H](O)[C@H](O)[C@@H](O)[C@@H]2O)nn1 = 9.95
• CCCCCCCCCCCCn1cc(CN[C@H]2[C@H](O)[C@@H](O)[C@H](O)[C@@H](O)[C@@H]2O)nn1 = 24.9
• CCCCCCCCCCCn1cc(CCN[C@H]2[C@H](O)[C@@H](O)[C@H](O)[C@@H](O)[C@@H]2O)nn1 = 9.63
• CCCCCCCCCn1cc(CCN[C@H]2[C@H](O)[C@@H](O)[C@H](O)[C@@H](O)[C@@H]2O)nn1 = 4.62
• CCCCCCCCCCn1cc(CN[C@H]2[C@H](O)[C@@H](O)[C@H](O)[C@@H](O)[C@@H]2O)nn1 = 17.2
• CCCCCCCCCCCCCCn1cc(CN[C@H]2[C@H](O)[C@@H](O)[C@H](O)[C@@H](O)[C@@H]2O)nn1 = 13.8

Query: fold change (FC); subject: CCCCCCCCCCN[C@H]1[C@H](O)[C@@H](O)[C@H](O)[C@@H](O)[C@@H]1O
2.24

----------
Target Under Test: UniProt P04062
Assay Text: Binding affinity to recombinant beta-glucocerebrosidase assessed as enzymatic activity at 50 uM after 40 mins by thermal stabilization assay relative to control
Mark criterion met for fold change (FC) under 6, criterion not met if at or over.

Reference set (5 entries):
- CCCCCCCCCCN[C@H]1[C@H](O)[C@@H](O)[C@H](O)[C@@H](O)[C@@H]1O: criterion met
- CCCCCCCCCCCCCCn1cc(CN[C@H]2[C@H](O)[C@@H](O)[C@H](O)[C@@H](O)[C@@H]2O)nn1: criterion not met
- CCCCCCCCCCCCn1cc(CN[C@H]2[C@H](O)[C@@H](O)[C@H](O)[C@@H](O)[C@@H]2O)nn1: criterion not met
- CCCCCCCCCCn1cc(CN[C@H]2[C@H](O)[C@@H](O)[C@H](O)[C@@H](O)[C@@H]2O)nn1: criterion not met
- CCCCCCCCCn1cc(CCN[C@H]2[C@H](O)[C@@H](O)[C@H](O)[C@@H](O)[C@@H]2O)nn1: criterion met

Lab note: next molecule to report on.
Just wondering, is fold change (FC) of CCCCCCCCCn1cc(CN[C@H]2[C@H](O)[C@@H](O)[C@H](O)[C@@H](O)[C@@H]2O)nn1 below 6?
criterion met

----------
Target Under Test: Lysosomal acid glucosylceramidase (Homo sapiens) (UniProt P04062)
Assay Text: Inhibition of beta-glucocerebrosidase in human fibroblast at 50 uM after 24 hrs by fluorescence assay
Parameter Measured: inhibition

- CCCOCCCCCCn1cc(CN[C@H]2[C@H](O)[C@@H](O)[C@H](O)[C@@H](O)[C@@H]2O)nn1: < 5%
- CCCCCCCCn1cc(CCCN[C@H]2[C@H](O)[C@@H](O)[C@H](O)[C@@H](O)[C@@H]2O)nn1: 40%
- CCCCCCCCCCCCCCn1cc(CN[C@H]2[C@H](O)[C@@H](O)[C@H](O)[C@@H](O)[C@@H]2O)nn1: Toxic
- CCCCCCCCCCn1cc(CCCN[C@H]2[C@H](O)[C@@H](O)[C@H](O)[C@@H](O)[C@@H]2O)nn1: 20%
- CCCCCCCCCCn1cc(CN[C@H]2[C@H](O)[C@@H](O)[C@H](O)[C@@H](O)[C@@H]2O)nn1: 90%

Query: inhibition; subject: CCCCn1cc(CN[C@H]2[C@H](O)[C@@H](O)[C@H](O)[C@@H](O)[C@@H]2O)nn1
< 5%

Query: inhibition; subject: CCCCCCCCn1cc(CCN[C@H]2[C@H](O)[C@@H](O)[C@H](O)[C@@H](O)[C@@H]2O)nn1
< 5%

Query: inhibition; subject: CCCCCCCCCCCn1cc(CCN[C@H]2[C@H](O)[C@@H](O)[C@H](O)[C@@H](O)[C@@H]2O)nn1
50%
